Here the recorded melting point is given for each entry.

Record excerpt, results attached:
{"compound": "Cn1nc(-c2c(F)cccc2Cl)nc1-c1cc(-c2cccc(C(F)(F)F)c2)sc1Cl", "melting point": "53 to 54 °C"}
{"compound": "O=c1ccc2cnc(Nc3ccccc3)nc2[nH]1", "melting point": "> 350 °C"}
{"compound": "COc1cc2nc(N)nc(-c3cccc(CO)c3)c2cc1OC", "melting point": "230 to 232 °C"}
{"compound": "CCC1(CO)CCCN2CCC3=c4ccccc4=NC3=C21 (stereo unspecified)", "melting point": "111 to 113 °C"}

Supply melting point value. Item: CC(C)(C)C(Cc1ccc(Br)cc1)C(=O)n1ccnc1 (stereo unspecified)
101 to 102 °C

Supply melting point value. Item: "Cc1c(C(F)(F)F)n(C)c(=O)n(-c2ccc(Br)cc2F)c1=O"
129 to 131 °C

Supply melting point value. Item: "CCOP(=O)(OCC)C(Nc1nc2ccccc2s1)P(=O)(OCC)OCC"
165 to 167 °C
